- Measurement Context: 318.15 K; 101.33 kPa; Liquid; Vibrating tube method
Kindly state mass density for each of the entries shown.
One number for each entry, in kg/m3.

Molecule	mass density / kg/m3
CCCCCC[n+]1ccccc1.[Cl-] [1-hexylpyridinium chloride]	1142.77
CCCCCCCC[n+]1ccccc1.[Cl-] [N-octylpyridinium chloride]	1123.06
CCCCCCCC[n+]1ccc(C)cc1.[Cl-] [4-methyl-1-octylpyridinium chloride]	1102.01
CCCCCC[n+]1ccccc1.[Br-] [1-hexylpyridinium bromide]	1229.23
CCCCCC[n+]1ccc(C)cc1.[Br-] [1-hexyl-4-methylpyridinium bromide]	1207.88

--- query ---
q: Identify measured mass density corresponding to CCCCCCCC[n+]1ccccc1.[Br-] [1-octylpyridinium bromide]
a: 1161.81
